- ASSAY SYSTEM: T1, mouse IL-9 (mouse, UniProt P15247 19-144)
- T1 construct: Recombinant mouse IL-9 (R&D Systems) in SPR and BLI; baculovirus supernatant in the bioassay; also called mIL-9; mIL9
- T1 sequence: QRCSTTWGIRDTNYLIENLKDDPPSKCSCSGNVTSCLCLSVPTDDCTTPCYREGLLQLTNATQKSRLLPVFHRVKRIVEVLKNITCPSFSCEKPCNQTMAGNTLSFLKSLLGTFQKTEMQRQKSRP
- PROTOCOL NOTES: SPR (Biacore 3000), IL-9 immobilised on CM-5 chip, Fab periplasmic extract injected
MEASUREMENT LABEL: binding result

BINDER	ASSAY VALUE
Fab 7A4 (Fab, V domains shown, Llama-derived Fab (VH-CH1 and VL-CL) from E. coli periplasmic extract; also called 9MP7A4) VH: EVQLVESGPGLVKPSQTLSLTCTVSGGSITTGYYAWSWIRQPPGKGLEWMGFIARDGSTSYSPSLKSRTSISRDTSKNQFSLQLSSVTPEDTAVYYCARAGEGRSWYPGYYYGMDYWGKGTLVTVSS VL: AQAVVTQEPSLSVSPGGTVTLTCGLSSGSVTSSNYPAWYQQTPGQAPRVLIYNTNSRHSGVPSRYSGFISGNKAALTITGAEPEDEADYYCHLHEGSTGVFGGGTHLNVL	no binding
Fab 6D3 (Fab, V domains shown, it is treated as the same molecule; also called 9MP6D3) VH: QVQVQESGPGLVKPSQTLSLTCTVSGGPITTRYYAWSWIRQPPGKGLEWMGLIDYDGSVYYSPSLKSRTSISRDTAKNQFSLQLSSVTPEDTAVYYCARVSAATLFLDYWGQGTQVTVSS VL: LSYELTQPSALSVTLGQTAKITCQGGSLGSSYAHWYQQKPDQAPILVIYDDDSRPSGIPERFSGSSSGGTATLTISGAQAEDEGDYYCQSYDSSANFVFGGGTKLTVL	no binding
Fab 8C3 (Fab, V domains shown, Llama-derived Fab (VH-CH1 and VL-CL) from E. coli periplasmic extract; also called 9MP8C3) VH: EVQVQESGPGLVKPSQTLSLTCTVSGGSITTSSYGWMWIRQPPGKGLEWMGVIFSDGSTAYNPSLRSRTSISRDTSKNQFSLQLSSVTPEDTAVYYCARSFVRGVVIGELDYGMDYWGKGTLVTVSS VL: AQAVVTQEPSLSVSPGGTVTLTCGLSSGSVTTSNYPGWFQQTPGQAPRTLIYSTSSRHSGVPSRFSGSMSGNKAALTITGAQPEDEADYYCALHMGSSTVFGGGTHLTVL	no binding
